measurementTarget: SARS-CoV-2 Main Protease (SARS-CoV-2) (UniProt P0DTD1)
experimentalContext: 50.0 µM
propertyName: inhibition (%)
Hi! Could you send only the number? It should be in %, unit omitted.

CC(C)c1scnc1NC(=O)C1CCOc2ccc(Cl)cc21 (configuration not stated) : 0

Notebook entry, SARS-CoV-2 Main Protease (SARS-CoV-2) (UniProt P0DTD1) assay: inhibition of Cc1cc([C@H](C)C(=O)O)cc2[nH]c3ccc(Cl)cc3c12 (stereo in doubt) = ?
9.04

Notebook entry, SARS-CoV-2 Main Protease (SARS-CoV-2) (UniProt P0DTD1) assay: inhibition of COc1c(NC(=O)Cc2cccc(Cl)c2Cl)c(C)nn1C = ?
0

Notebook entry, SARS-CoV-2 Main Protease (SARS-CoV-2) (UniProt P0DTD1) assay: inhibition of O=C(Nc1cccnc1)N(CCN1CCOCC1)c1cccc(Cl)c1 = ?
59.4

Notebook entry, SARS-CoV-2 Main Protease (SARS-CoV-2) (UniProt P0DTD1) assay: inhibition of O=C1Nc2ccc(OCCF)cc2C1=O = ?
56.2

Notebook entry, SARS-CoV-2 Main Protease (SARS-CoV-2) (UniProt P0DTD1) assay: inhibition of C=CC(=O)N1CCN(S(=O)(=O)c2ccccc2-c2ccc(Nc3ccc(C#N)cn3)cc2)CC1 = ?
0

Notebook entry, SARS-CoV-2 Main Protease (SARS-CoV-2) (UniProt P0DTD1) assay: inhibition of Cc1ccncc1NC(=O)CN(C)S(=O)(=O)c1cccc2cccnc12 = ?
-0.449

====

This listing pairs compounds with measured inhibition.
measurementTarget: SARS-CoV-2 Main Protease (SARS-CoV-2)
experimentalContext: 50.0 µM
Hi! Could you send only the number? It should be in %, unit omitted.

COc1ccc(S(=O)(=O)N2CCN(C(=O)c3cc(=O)[nH]c4cc(F)ccc34)CC2)cc1 : -3.27

What does the record list as inhibition for O=C(CCl)N1CCN(Cc2cccc(Cl)c2)CC1 ?
108

What does the record list as inhibition for COc1cccc(CNC(=O)N2CCN(C(=O)N3CCCCC3)CC2)c1 ?
-0.332

====

experimentalContext: 20.0 µM
propertyName: relative solubility at 20 uM
Answer with a number only.

Reference set, count: 5
CCSCC1CCN(c2ccc(S(N)(=O)=O)cc2)CC1 : 1
Cc1ccncc1-c1ccc(S(N)(=O)=O)cc1 : 1
C=CC(=O)N(c1ccc(N(C)C)c(C)c1)C(C(=O)NC(C)(C)C)c1cccnc1 (configuration not stated) : 0.98
Cc1cccc(NC(=O)C(C#N)C(=O)C2CCCC2)c1 (configuration not stated) : 1
O=C(Cc1cccc(Cl)c1)Nc1cnccc1O : 1

What does the record list as relative solubility at 20 uM for NS(=O)(=O)c1ccc2c(c1)C(=O)C(=O)N2 ?
1.01

What does the record list as relative solubility at 20 uM for CC(C(=O)Nc1cccc(NC2CCCC2)c1)c1cnccn1 (configuration not stated) ?
1

What does the record list as relative solubility at 20 uM for Cc1ccc(NC(=O)Cc2cc3cccnc3[nH]2)s1 ?
1

====

This listing pairs compounds with measured inhibition.
measurementTarget: SARS-CoV-2 Main Protease (SARS-CoV-2) (UniProt P0DTD1)
experimentalContext: 50.0 µM
Hi! Could you send only the number? It should be in %, unit omitted.

CCOC(=O)c1ccc(NC(=O)Nc2cn(C)c(=O)c3ccccc23)cc1 : 4.9
Cc1cc(NC(=O)Cn2cncc2C)cc(C)c1Cl : 4.88

What does the record list as inhibition for C=CC(=O)Nc1cccc(OC2CC(=O)N2)c1 (centres undefined) ?
2.19

What does the record list as inhibition for N#Cc1ccnc(CNC(=O)Cc2c[nH]c3ncccc23)c1 ?
-17.2

What does the record list as inhibition for CCc1ccccc1Nc1nc(N)nc(CSc2nnc3ccccn23)n1 ?
46.6
